Reported values of pEC50 for individual entries
experimental_target: hTLR8 (Homo sapiens)
Sequence (Q9NR97 27-1041): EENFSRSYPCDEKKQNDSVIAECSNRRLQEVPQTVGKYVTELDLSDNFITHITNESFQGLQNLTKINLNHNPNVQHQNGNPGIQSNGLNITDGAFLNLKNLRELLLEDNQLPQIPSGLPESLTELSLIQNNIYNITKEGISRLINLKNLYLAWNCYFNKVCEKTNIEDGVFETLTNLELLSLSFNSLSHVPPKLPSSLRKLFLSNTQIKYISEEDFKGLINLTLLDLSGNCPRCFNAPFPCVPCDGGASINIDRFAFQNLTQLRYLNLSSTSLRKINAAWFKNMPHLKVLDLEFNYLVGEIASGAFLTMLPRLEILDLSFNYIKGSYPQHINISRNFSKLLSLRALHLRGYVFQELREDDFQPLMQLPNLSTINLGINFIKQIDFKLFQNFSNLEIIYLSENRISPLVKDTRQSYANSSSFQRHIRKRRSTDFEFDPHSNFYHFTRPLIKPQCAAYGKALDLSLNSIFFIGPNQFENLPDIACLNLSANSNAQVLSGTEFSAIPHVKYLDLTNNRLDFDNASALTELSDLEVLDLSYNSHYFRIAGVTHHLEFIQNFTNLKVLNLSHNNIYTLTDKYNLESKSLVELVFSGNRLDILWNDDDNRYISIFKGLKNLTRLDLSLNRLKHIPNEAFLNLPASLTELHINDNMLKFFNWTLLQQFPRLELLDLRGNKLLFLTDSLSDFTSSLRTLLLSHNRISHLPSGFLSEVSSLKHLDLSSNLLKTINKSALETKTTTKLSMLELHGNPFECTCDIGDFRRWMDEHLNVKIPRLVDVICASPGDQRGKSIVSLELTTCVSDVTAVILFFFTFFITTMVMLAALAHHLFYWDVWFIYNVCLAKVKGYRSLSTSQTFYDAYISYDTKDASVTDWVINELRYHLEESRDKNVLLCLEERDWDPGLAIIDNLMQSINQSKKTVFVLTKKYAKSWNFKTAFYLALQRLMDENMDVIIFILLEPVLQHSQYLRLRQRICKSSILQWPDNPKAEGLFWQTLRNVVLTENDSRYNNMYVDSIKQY
procedure_details: Agonistic activity on human TLR8 in HEK-Blue hTLR8 cells (QUANTI-Blue)
conditions_used: 24 h incubation, OD650, read-out: hTLR 8 EC50
Here pEC50 is given on a logarithmic scale as minus log10 of the concentration in mol/L.

Solved entries (count: 4):
>>> test_value("CCCC[C@](C)(CO)Nc1nc(N)nc2cc(-c3cc(=O)[nH]cc3CNCCOC)ccc12 [Example 57]")
5.73
>>> test_value("CCCC[C@](C)(CO)Nc1nc(N)nc2cc(-c3cc(=O)[nH]cc3CN(C)C)cnc12 [Example 50]")
7.80
>>> test_value("C=CCCN(C)Cc1cn(C2CCN(C)CC2)c(=O)cc1-c1cnc2c(N[C@@](C)(CO)CCCC)nc(N)nc2c1 [Example 37]")
6.40
>>> test_value("CCCCN(C)Cc1c[nH]c(=O)cc1-c1cnc2c(N[C@@](C)(CO)CCCC)nc(N)nc2c1 [Example 28]")
7.20

For the next question, use this compound.
Recorded pEC50 for CCCC[C@](C)(CO)Nc1nc(N)nc2cc(-c3cc(=O)[nH]cc3CN(C)CCc3ccccc3)ccc12 [Example 29] , please? 6.57
